Molecular target: T1, Recombinant human MASP1 enzyme (fragment corresponding to amino acids 297-699, C-terminal His Tag) (human, UniProt P48740 297-699)
T1 sequence: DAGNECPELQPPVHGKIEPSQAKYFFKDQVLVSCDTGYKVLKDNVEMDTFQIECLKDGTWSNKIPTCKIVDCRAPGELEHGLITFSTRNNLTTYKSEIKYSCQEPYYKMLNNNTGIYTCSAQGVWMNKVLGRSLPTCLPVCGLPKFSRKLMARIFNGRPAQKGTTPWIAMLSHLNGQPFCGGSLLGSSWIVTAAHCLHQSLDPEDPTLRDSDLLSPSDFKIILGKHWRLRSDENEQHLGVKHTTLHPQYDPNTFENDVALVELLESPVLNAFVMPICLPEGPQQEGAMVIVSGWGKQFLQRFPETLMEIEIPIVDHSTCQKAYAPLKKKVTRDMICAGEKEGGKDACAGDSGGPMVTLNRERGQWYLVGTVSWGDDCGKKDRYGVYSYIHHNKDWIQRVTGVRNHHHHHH
Assay: cell-based or functional assay
Bridge positions count the residues as written; N and C are the ends. Square brackets hold non-standard residues; d marks the D form. Ends that are not written are not given here. Oic = O=C(O)[C@@H]1C[C@@H]2CCCC[C@@H]2N1; NMeI = CC[C@H](C)[C@H](NC)C(=O)O; Pen = CC(C)(S)[C@H](N)C(=O)O; Sar = CNCC(=O)O

>  <binder>
A[NMeI]CSRSLPPICIPD-NH2 (disulfide 3-11; N-terminus assumed; SMILES CC[C@H](C)[C@@H]1NC(=O)[C@@H]2CCCN2C(=O)[C@@H]2CCCN2C(=O)[C@H](CC(C)C)NC(=O)[C@H](CO)NC(=O)[C@H](CCCNC(=N)N)NC(=O)[C@H](CO)NC(=O)[C@@H](NC(=O)[C@H]([C@@H](C)CC)N(C)C(=O)[C@H](C)N)CSSC[C@@H](C(=O)N[C@H](C(=O)N2CCC[C@H]2C(=O)N[C@@H](CC(=O)O)C(N)=O)[C@@H](C)CC)NC1=O) [A-((N-Me)I)-C+SRSLPPIC+IPD-NH2]

>  <human MASP1 IC50>
10.1 nM

$$$$
>  <binder>
[Sar]ICSRSLP[Oic]I[Pen]I-NH2 (disulfide 3-11; N-terminus assumed; SMILES CC[C@H](C)[C@H](NC(=O)[C@H]1NC(=O)[C@H]([C@@H](C)CC)NC(=O)[C@@H]2C[C@@H]3CCCC[C@@H]3N2C(=O)[C@@H]2CCCN2C(=O)[C@H](CC(C)C)NC(=O)[C@H](CO)NC(=O)[C@H](CCCNC(=N)N)NC(=O)[C@H](CO)NC(=O)[C@@H](NC(=O)[C@@H](NC(=O)CNC)[C@@H](C)CC)CSSC1(C)C)C(N)=O) [((N-Me)G)-IC+SRSLP-(Oic)-I-(Pen)+I-NH2]

>  <human MASP1 IC50>
8.45 nM

$$$$

This collection of values is drawn from patent US20210246166A1.
